Hello, the source for this data is patent US20060074243A1, in case you need it.

# TARGET_ENTITY: Human recombinant MMP-14 (Homo sapiens)
# Construct: The catalytic domain enzyme was expressed in E. coli inclusion bodies, solubilized in urea; made in house
# MEASUREMENT_NOTES: In vitro MMP inhibition analysis (fluorogenic peptide substrate cleavage), Ki
# Type: biochemical
# SETUP_CONDITIONS: Table 2
pKi: −log10 of the molar value.
We use 6 as the dividing line for pKi: on or above the line is satisfied, below is not satisfied.

COMPOUND	GROUP
CCCCOc1ccc(-c2ccc(S(=O)(=O)C3(C(=O)NO)CCOCC3)cc2)cc1C(F)(F)F [Example 78]	not satisfied
O=C(c1ccc2cc(-c3ccc(S(=O)(=O)C4(C(=O)NO)CCOCC4)cc3)ccc2c1)N1CCOCC1 [Example 222]	not satisfied
O=C(NO)C1(S(=O)(=O)c2ccc(-c3ccc(CCC(F)(C(F)(F)F)C(F)(F)F)cn3)cc2)CCOCC1 [Example 133]	not satisfied
O=CN1CCC(C(=O)NO)(S(=O)(=O)c2ccc(-c3ccc(CCCC(F)(F)F)cn3)cc2)CC1 [Example 159]	satisfied
CC(C)CNC(=O)c1cnc(-c2ccc(S(=O)(=O)C3(C(=O)NO)CCOCC3)cc2)cn1 [Example 186]	not satisfied

Decide: pKi of O=C(NO)C1(S(=O)(=O)c2ccc(-c3nc4ccccc4s3)cc2)CCOCC1 [Example 195] >= 6?
not satisfied

----------
# TARGET_ENTITY: Human recombinant MMP-9 (Homo sapiens)
# Construct: made in house; host or cells: MMP-9-transfected HT1080 cells (spent media)
# Sequence (P14780 107-707 limits assumed): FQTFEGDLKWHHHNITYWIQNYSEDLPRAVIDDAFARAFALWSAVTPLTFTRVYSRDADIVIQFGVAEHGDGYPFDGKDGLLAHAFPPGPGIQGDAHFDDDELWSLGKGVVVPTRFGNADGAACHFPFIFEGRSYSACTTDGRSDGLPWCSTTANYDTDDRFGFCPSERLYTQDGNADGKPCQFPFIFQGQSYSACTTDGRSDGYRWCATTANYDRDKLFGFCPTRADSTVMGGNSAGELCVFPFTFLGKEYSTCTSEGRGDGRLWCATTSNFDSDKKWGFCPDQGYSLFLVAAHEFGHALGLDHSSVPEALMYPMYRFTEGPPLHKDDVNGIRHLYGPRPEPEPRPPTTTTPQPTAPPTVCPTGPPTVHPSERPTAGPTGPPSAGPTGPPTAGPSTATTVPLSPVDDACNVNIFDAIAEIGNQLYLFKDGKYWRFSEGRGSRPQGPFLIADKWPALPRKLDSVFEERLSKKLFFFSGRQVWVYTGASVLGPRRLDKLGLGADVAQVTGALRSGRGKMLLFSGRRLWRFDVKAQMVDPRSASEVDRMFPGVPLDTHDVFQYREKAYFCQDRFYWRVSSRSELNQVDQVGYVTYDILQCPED
# MEASUREMENT_NOTES: In vitro MMP inhibition analysis (fluorogenic peptide substrate cleavage), Ki
# Format: biochemical
# SETUP_CONDITIONS: Table 2
PROPERTY_LABEL: pKi
The value called pKi is obtained by taking minus log10 of the concentration in mol/L.

Field: example entries. Status: answers known.
MOLECULE	pKi
COCCN1CCC(C(=O)NO)(S(=O)(=O)c2ccc(-c3ccc(OCCN4CCCC4)cc3)cc2)CC1 [Example 72]	7.89
CCOCCOc1ccc(-c2ccc(S(=O)(=O)C3(C(=O)NO)CCN(CC)CC3)cc2)cc1 [Example 116]	8.03

Give its pKi value. Item: O=C(NO)C1(S(=O)(=O)c2ccc(-c3ccc(CCC(F)(F)C(F)(F)F)cn3)cc2)CCOCC1 [Example 201]
10.01

Another molecule to check: COC(C)CCOc1ccc(-c2ccc(S(=O)(=O)C3(C(=O)NO)CCOCC3)cc2)cc1C(F)(F)F (stereo not shown) [Example 100]
6.07

Follow-up item: COCCOc1ccc(-c2ccc(S(=O)(=O)C3(C(=O)NO)CCN(C4CC4)CC3)cc2)cc1F [Example 112]
8.66

Try this molecule too: O=C(NO)C1(S(=O)(=O)c2ccc(-c3ccc(-c4ccncc4)cc3)cc2)CCOCC1 [Example 141]
9.70

----------
# TARGET_ENTITY: Human recombinant MMP-2 (Homo sapiens, UniProt P08253)
# Construct: made in house; host or cells: MMP-2-transfected p2AHT2 cells
# Sequence (P08253 110-660): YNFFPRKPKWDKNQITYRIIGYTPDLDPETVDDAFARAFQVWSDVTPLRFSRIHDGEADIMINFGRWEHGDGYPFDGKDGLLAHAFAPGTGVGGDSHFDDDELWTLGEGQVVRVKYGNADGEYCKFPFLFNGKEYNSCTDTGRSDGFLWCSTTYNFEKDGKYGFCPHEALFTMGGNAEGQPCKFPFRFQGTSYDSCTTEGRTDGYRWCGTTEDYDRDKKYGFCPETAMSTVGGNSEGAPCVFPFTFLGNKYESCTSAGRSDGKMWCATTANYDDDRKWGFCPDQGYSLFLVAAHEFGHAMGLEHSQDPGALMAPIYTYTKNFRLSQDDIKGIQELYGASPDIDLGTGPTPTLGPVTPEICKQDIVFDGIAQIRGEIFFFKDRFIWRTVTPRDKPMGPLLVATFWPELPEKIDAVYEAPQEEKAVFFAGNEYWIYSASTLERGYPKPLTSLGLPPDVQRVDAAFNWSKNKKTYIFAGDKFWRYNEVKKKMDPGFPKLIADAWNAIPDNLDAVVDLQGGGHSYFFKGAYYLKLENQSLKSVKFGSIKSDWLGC
# MEASUREMENT_NOTES: In vitro MMP inhibition analysis (fluorogenic peptide substrate cleavage), Ki
# Assay type: biochemical
# SETUP_CONDITIONS: Table 1
# Method: Several compounds and salts were analyzed in an in vitro assay to determine their ability to inhibit the MMP cleavage of peptide substrates. Inhibition constant (Ki) were calculated from the assayed compound-MMP interactions. […] The assays from which the Ki determinations were made were performed as follows. […] In the absence of MMP inhibitory activity, substrate (I) was cleaved at the Gly-Leu bond resulting in an increase of relative fluorescence. […]
PROPERTY_LABEL: pKi
Reminder that pKi is minus the log10 of a molar concentration.

COMPOUND	PROPERTY_LABEL	MEASURED
COCCN1CCC(C(=O)NO)(S(=O)(=O)c2ccc(-c3ccc(OC(F)(F)C(F)F)cc3)cc2)CC1 [Example 39]	pKi	11.05
CC(F)(F)CCc1ccc(-c2ccc(S(=O)(=O)C3(C(=O)NO)CCN(C4CC4)CC3)cc2)cc1 [Example 59]	pKi	9.96
O=C(NO)C1(S(=O)(=O)c2ccc(-c3ccc(CCC(F)(F)C(F)(F)F)cn3)cc2)CCOCC1 [Example 36]	pKi	10.15

# next compound below
# returns recorded pKi (system: Human recombinant MMP-2 (Homo sapiens, UniProt P08253)) for COCCN1CCC(C(=O)NO)(S(=O)(=O)c2ccc(-c3cnc(CCC(C)(F)F)cn3)cc2)CC1 [Example 65]
9.02

----------
# TARGET_ENTITY: Human recombinant MMP-1 (Homo sapiens)
# Construct: made in house; host or cells: MMP-1-transfected HT-1080 cells (spent media)
# MEASUREMENT_NOTES: In vitro MMP inhibition analysis (fluorogenic peptide substrate cleavage), Ki
# Format: biochemical
# SETUP_CONDITIONS: Table 2
PROPERTY_LABEL: pKi
// scale note: pKi = -log10(conc_M); give the bare number

Here are 4 molecules together with their reported answers.
STRUCTURE	TARGET_ENTITY	pKi
CCCCCc1ccc(-c2ccc(S(=O)(=O)C3(C(=O)NO)CCOCC3)cc2)cc1	Human recombinant MMP-1 (Homo sapiens)	5.40
CCOCCOc1ccc(-c2ccc(S(=O)(=O)C3(C(=O)NO)CCN(CC)CC3)cc2)cc1	Human recombinant MMP-1 (Homo sapiens)	5.05
CC(C)CCc1ccc(-c2ccc(S(=O)(=O)C3(C(=O)NO)CCOCC3)cc2)nc1	Human recombinant MMP-1 (Homo sapiens)	5.51
O=C(NO)C1(S(=O)(=O)c2ccc(-c3nc4ccccc4o3)cc2)CCOCC1	Human recombinant MMP-1 (Homo sapiens)	5.83

Lab note: need pKi for CC(C)Cc1ccc(-c2ccc(S(=O)(=O)C3(C(=O)NO)CCOCC3)cc2)nc1 on Human recombinant MMP-1 (Homo sapiens), anyone have it?
5.63

What would you report for O=C(NCC1CC1)c1cnc(-c2ccc(S(=O)(=O)C3(C(=O)NO)CCOCC3)cc2)cn1 ?
6.70

Another molecule: CC(C)c1ccc(-c2ccc(S(=O)(=O)C3(C(=O)NO)CCOCC3)cc2)cc1
5.98

Note, next up: COCC#Cc1cnc(-c2ccc(S(=O)(=O)C3(C(=O)NO)CCOCC3)cc2)cn1
5.60

Field entry: CC(C)NC(=O)c1ccc(-c2ccc(S(=O)(=O)C3(C(=O)NO)CCOCC3)cc2)nc1
6.12

And then Cc1ccc(-c2ccc(S(=O)(=O)C3(C(=O)NO)CCOCC3)cc2)nc1 , what is it?
6.45

Request: O=C(NO)C1(S(=O)(=O)c2ccc(-c3ccc(C(F)(F)F)cc3F)cc2)CCOCC1
6.22

----------
# TARGET_ENTITY: Human recombinant MMP-1 (Homo sapiens)
# Construct: made in house; host or cells: MMP-1-transfected HT-1080 cells (spent media)
# MEASUREMENT_NOTES: In vitro MMP inhibition analysis (fluorogenic peptide substrate cleavage), Ki
# Assay type: biochemical
# SETUP_CONDITIONS: Table 2
pKi: −log10 of the molar value.
PROPERTY_LABEL: pKi

Illustrative cases are given below, each with its answer.
STRUCTURE	pKi
O=C(NO)C1(S(=O)(=O)c2ccc(-c3ccc(OC(F)(F)F)cc3)cc2)CCOCC1	6.24
COc1ccc(Cc2cnc(-c3ccc(S(=O)(=O)C4(C(=O)NO)CCOCC4)cc3)cn2)cc1	< 5.00
O=C(NO)C1(S(=O)(=O)c2ccc(-c3cnc(CCC(F)(F)C(F)(F)F)nc3)cc2)CCOCC1	< 5.00
O=C(NO)C1(S(=O)(=O)c2ccc(-c3cnc(NCC4CC4)cn3)cc2)CCOCC1	< 5.60
CC(=O)Nc1cnc(-c2ccc(S(=O)(=O)C3(C(=O)NO)CCOCC3)cc2)cn1	5.02
CCCCc1ccc(-c2ccc(S(=O)(=O)C3(C(=O)NO)CCN(CC)CC3)cc2)nc1	< 5.00

Which measured pKi value corresponds to O=CN1CCC(C(=O)NO)(S(=O)(=O)c2ccc(-c3ccc(CCCC(F)(F)F)cn3)cc2)CC1 ?
5.46

Input COCCN1CCC(C(=O)NO)(S(=O)(=O)c2ccc(-c3cnc(OCCC4CCCC4)cn3)cc2)CC1
< 5.00

----------
# TARGET_ENTITY: Human recombinant MMP-1 (Homo sapiens)
# Construct: made in house; host or cells: MMP-1-transfected HT-1080 cells (spent media)
# Sequence (P03956 100-469): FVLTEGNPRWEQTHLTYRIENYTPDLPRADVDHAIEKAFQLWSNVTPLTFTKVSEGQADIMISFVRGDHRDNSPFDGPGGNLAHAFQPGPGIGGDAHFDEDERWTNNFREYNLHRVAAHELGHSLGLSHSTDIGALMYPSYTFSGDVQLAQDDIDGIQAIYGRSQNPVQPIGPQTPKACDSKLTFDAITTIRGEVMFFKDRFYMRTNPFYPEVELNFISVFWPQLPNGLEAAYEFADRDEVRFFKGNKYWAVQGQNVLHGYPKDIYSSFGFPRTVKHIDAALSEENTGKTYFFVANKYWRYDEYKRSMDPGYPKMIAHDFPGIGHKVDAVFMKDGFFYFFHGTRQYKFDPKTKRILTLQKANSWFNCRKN
# MEASUREMENT_NOTES: In vitro MMP inhibition analysis (fluorogenic peptide substrate cleavage), Ki
# Type: biochemical
# SETUP_CONDITIONS: Table 2
PROPERTY_LABEL: Ki (µM)
Kindly answer with a numeric value in µM, unit omitted.

Observe how each entry below is paired with its result.
STRUCTURE	UNITS_OF_MEASURE	MEASURED
CCc1cnc(-c2ccc(S(=O)(=O)C3(C(=O)NO)CCOCC3)cc2)nc1	µM	3.58
O=C(NO)C1(S(=O)(=O)c2ccc(-c3ccc(-n4cncn4)cc3)cc2)CCOCC1	µM	1.24

Tell me the measured Ki of COCCOc1ccc(-c2ccc(S(=O)(=O)C3(C(=O)NO)CCN(CCOC)CC3)cc2)cc1F , please.
6.55

Another compound: O=C(NO)C1(S(=O)(=O)c2ccc(-c3cnc(OCC4CCC4)cn3)cc2)CCOCC1
1.1

Proceed to O=C(NO)C1(S(=O)(=O)c2ccc(-c3ccc(CCCC(F)(F)F)cn3)cc2)CC=CC1
4.06
